# ASSAYED TARGET: TAAR13c (Danio rerio, UniProt Q5QNP2, D279E)
# Sequence (Q5QNP2 1-341 D279E): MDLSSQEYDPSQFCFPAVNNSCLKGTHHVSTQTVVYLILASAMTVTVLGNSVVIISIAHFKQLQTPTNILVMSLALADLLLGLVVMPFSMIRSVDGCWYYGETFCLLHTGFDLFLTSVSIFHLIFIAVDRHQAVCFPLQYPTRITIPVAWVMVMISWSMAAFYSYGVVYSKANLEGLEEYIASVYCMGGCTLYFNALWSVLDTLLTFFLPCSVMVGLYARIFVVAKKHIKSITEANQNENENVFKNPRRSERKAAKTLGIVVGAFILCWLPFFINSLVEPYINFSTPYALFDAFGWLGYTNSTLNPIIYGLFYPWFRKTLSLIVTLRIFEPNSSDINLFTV
# METHOD DESCRIPTION: Fluo-4 Ca2+ influx through cAMP-gated CNG channel in stable HEK293 line
# Format: cell-based
# CONDITION DETAILS: read-out: EC50 (μM, mean±SEM) / cad
PARAMETER MEASURED: EC50
State the result as a value with its unit after it.

Query string: Quickly give me recorded EC50 for NCCCCCN [cadaverine]
Result string: 0.72 µM
